B1: glmS ribozyme (parent)
chain: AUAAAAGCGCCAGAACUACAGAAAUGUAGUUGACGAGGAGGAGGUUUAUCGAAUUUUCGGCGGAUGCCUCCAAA

Variants of: B1
Assay: kcat; higher = faster cleavage; RNA array
Settings: with glucosamine-6-phosphate
Fewer inactive variants are shown than the library holds.
READOUT LABEL: kcat (s⁻¹)
Give your result in s⁻¹ as a bare value.

sequence_change="G66C C71G" value_observed=4.2e-05
sequence_change="A6C U47A" value_observed=0.0001
sequence_change="A12U A33U C67U" value_observed=0.000242
sequence_change="C16G A52G" value_observed=0.000339
sequence_change="U47C C58A" value_observed=0.00036

IN: Recorded kcat of A48C C71U , please.
OUT: 0.000393

IN: kcat lookup needed for G63A C68G , thanks.
OUT: 1.26e-05

IN: Using the record for G40A A48G , report its kcat.
OUT: 4.48e-05

IN: Bench note: what kcat did A6C A15C show?
OUT: 3.27e-05

IN: Using the record for U54C G66A , report its kcat.
OUT: 0.011

IN: For the variant shown here, A6U A15U , give the reported kcat.
OUT: 3.81e-05

IN: Consider the variant shown here: A15G A42C What is its recorded kcat?
OUT: 1.26e-05

IN: I'd like to know its kcat. The variant in question is G13U U69A
OUT: 4.51e-05
